Recorded values, source patent US20090074779A1.

measurementTarget: T1, P75 receptor (UniProt P08138 29-250, limits assumed)
T1 construct: also called p75NTR; p75(NTR)
T1 sequence (looked up): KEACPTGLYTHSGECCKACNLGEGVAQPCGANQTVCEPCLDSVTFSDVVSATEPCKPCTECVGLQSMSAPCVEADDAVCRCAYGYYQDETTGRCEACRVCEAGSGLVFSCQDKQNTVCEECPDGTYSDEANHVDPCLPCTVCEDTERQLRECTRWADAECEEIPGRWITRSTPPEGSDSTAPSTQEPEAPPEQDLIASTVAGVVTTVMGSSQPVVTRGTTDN
assayProtocol: SPR (BIAlite), receptor amine-coupled on CM4 chip, ligand injected, 25 C
pKd: −log10 of the molar value.
Values of pKd greater than or equal to 7 map to Met; values below map to Not met.

binder	assignedCategory
RGIDKRHWNSQ (also called BDNF derived peptide BDNF-E) [BDNF-E]	Not met
TFVKALTMDGKQAAWR (also called NGF derived peptide NGF-EE) [NGF-EE]	Not met
CVLSRKAVRRA [NGF-C2]	Not met
RGIDSKHWNSY (also called NGF derived peptide NGF-E) [NGF-E]	Not met
BDNF (ligand, UniProt P23560 129-247, looked up, also called brain-derived neurotrophic factor) HSDPARRGELSVCDSISEWVTAADKKTAVDMSGGTVTVLEKVPVSKGQLKQYFYETKCNPMGYTKEGCRGIDKRHWNSQCRTTQSYVRALTMDSKKRIGWRFIRIDTSCVCTLTIKRGR	Met
